These data points were gathered from ChEMBL document CHEMBL4033756.

log10 CC50 at 72 h: recorded values
# Assay Protocol: Cytotoxicity against African green monkey Vero cells assessed as cell viability after 72 hrs by MTT assay
# Assay type: cell-based
# Condition Set: chlorocebus sabaeus
Parameter Measured: log10 CC50 at 72 h (log10 of the value in µM)

* O=c1nc(N2CCC3(CCN(Cc4ccc(F)cc4)C3)CC2)sc2c([N+](=O)[O-])cc(C(F)(F)F)cc12 | 2.91
* O=c1nc(N2CCC3(CCN(Cc4cc(F)cc(F)c4)CC3)CC2)sc2c([N+](=O)[O-])cc(C(F)(F)F)cc12 | 3.07
* COc1ccc(CN2CCC3(CCN(c4nc(=O)c5cc(C(F)(F)F)cc([N+](=O)[O-])c5s4)CC3)C2)cc1 | 1.94
* O=c1nc(N2CCC3(CCN(Cc4ccccc4)C3)CC2)sc2c([N+](=O)[O-])cc(C(F)(F)F)cc12 | 2.46
* O=c1nc(N2CCN(CC3CCCCC3)CC2)sc2c([N+](=O)[O-])cc(C(F)(F)F)cc12 | 3.15
* CCOC(=O)CN1CCC2(CCN(c3nc(=O)c4cc(C(F)(F)F)cc([N+](=O)[O-])c4s3)CC2)C1 | 2.42
* COc1ccc(CN2CC3(CCN(c4nc(=O)c5cc(C(F)(F)F)cc([N+](=O)[O-])c5s4)CC3)C2)cc1 | 1.90
* O=c1nc(N2CCC3(CCN(Cc4ccc(Br)cc4)CC3)CC2)sc2c([N+](=O)[O-])cc(C(F)(F)F)cc12 | 3.23
* O=c1nc(N2CCC3(CCN(Cc4ccc(C(F)(F)F)cc4)CC3)CC2)sc2c([N+](=O)[O-])cc(C(F)(F)F)cc12 | 2.16
* O=c1nc(N2CCC3(CCN(Cc4cccc(F)c4)CC3)CC2)sc2c([N+](=O)[O-])cc(C(F)(F)F)cc12 | 3.15

====

# Assay Protocol: Tmax in ICR mouse at 50 mg/kg, po by HPLC analysis
# Type: ADME, organism-based
# Condition Set: in vivo
Tmax: recorded values
Parameter Measured: Tmax (min)

- O=c1nc(N2CCC3(CCN(Cc4ccc(F)cc4)C3)CC2)sc2c([N+](=O)[O-])cc(C(F)(F)F)cc12: 64.8
- O=c1nc(N2CCC3(CCN(Cc4cccc(F)c4)CC3)CC2)sc2c([N+](=O)[O-])cc(C(F)(F)F)cc12: 40.2
- O=c1nc(N2CCC3(CCN(Cc4cc(F)cc(F)c4)CC3)CC2)sc2c([N+](=O)[O-])cc(C(F)(F)F)cc12: 30
- O=c1nc(N2CCC3(CCN(Cc4ccc(Br)cc4)CC3)CC2)sc2c([N+](=O)[O-])cc(C(F)(F)F)cc12: 60
- O=c1nc(N2CCN(CC3CCCCC3)CC2)sc2c([N+](=O)[O-])cc(C(F)(F)F)cc12: 49.8
- CCOC(=O)CN1CCC2(CCN(c3nc(=O)c4cc(C(F)(F)F)cc([N+](=O)[O-])c4s3)CC2)C1: 40.2
- O=c1nc(N2CCC3(CCN(Cc4ccc(C(F)(F)F)cc4)CC3)CC2)sc2c([N+](=O)[O-])cc(C(F)(F)F)cc12: 79.8

====

# Assay Protocol: Aqueous solubility of the compound at pH 2 after 12 hrs by HPLC-UV method
# Type: physicochemical
Decide using solubility at 12 h: a value greater than or equal to 1 µg/mL is Fulfilled, a smaller one is Not fulfilled.

* CCOC(=O)CN1CCC2(CCN(c3nc(=O)c4cc(C(F)(F)F)cc([N+](=O)[O-])c4s3)CC2)C1 | Fulfilled
* O=c1nc(N2CCC3(CCN(Cc4cccc(F)c4)CC3)CC2)sc2c([N+](=O)[O-])cc(C(F)(F)F)cc12 | Fulfilled
* O=c1nc(N2CCC3(CCN(Cc4ccc(C(F)(F)F)cc4)CC3)CC2)sc2c([N+](=O)[O-])cc(C(F)(F)F)cc12 | Fulfilled
* O=c1nc(N2CCN(CC3CCCCC3)CC2)sc2c([N+](=O)[O-])cc(C(F)(F)F)cc12 [MACOZINONE] | Not fulfilled
* O=c1nc(N2CCC3(CCN(Cc4ccccc4)C3)CC2)sc2c([N+](=O)[O-])cc(C(F)(F)F)cc12 | Fulfilled
* O=c1nc(N2CCC3(CCN(Cc4ccc(Br)cc4)CC3)CC2)sc2c([N+](=O)[O-])cc(C(F)(F)F)cc12 | Fulfilled
* O=c1nc(N2CCC3(CCN(Cc4cc(F)cc(F)c4)CC3)CC2)sc2c([N+](=O)[O-])cc(C(F)(F)F)cc12 | Not fulfilled
* O=c1nc(N2CCC3(CCN(Cc4ccc(F)cc4)C3)CC2)sc2c([N+](=O)[O-])cc(C(F)(F)F)cc12 | Fulfilled
* COc1ccc(CN2CCC3(CCN(c4nc(=O)c5cc(C(F)(F)F)cc([N+](=O)[O-])c5s4)CC3)C2)cc1 | Fulfilled
* COc1ccc(CN2CC3(CCN(c4nc(=O)c5cc(C(F)(F)F)cc([N+](=O)[O-])c5s4)CC3)C2)cc1 | Fulfilled

====

MRT: recorded values
# Assay Protocol: MRT in ICR mouse at 50 mg/kg, po by HPLC analysis
# Format: ADME, organism-based
# Condition Set: in vivo
Parameter Measured: MRT (h)

- O=c1nc(N2CCC3(CCN(Cc4ccc(F)cc4)C3)CC2)sc2c([N+](=O)[O-])cc(C(F)(F)F)cc12: 4
- O=c1nc(N2CCC3(CCN(Cc4ccc(C(F)(F)F)cc4)CC3)CC2)sc2c([N+](=O)[O-])cc(C(F)(F)F)cc12: 6.07
- O=c1nc(N2CCN(CC3CCCCC3)CC2)sc2c([N+](=O)[O-])cc(C(F)(F)F)cc12: 3.73
- O=c1nc(N2CCC3(CCN(Cc4ccc(Br)cc4)CC3)CC2)sc2c([N+](=O)[O-])cc(C(F)(F)F)cc12: 15.9
- O=c1nc(N2CCC3(CCN(Cc4cccc(F)c4)CC3)CC2)sc2c([N+](=O)[O-])cc(C(F)(F)F)cc12: 4.83
- CCOC(=O)CN1CCC2(CCN(c3nc(=O)c4cc(C(F)(F)F)cc([N+](=O)[O-])c4s3)CC2)C1: 5.2
- O=c1nc(N2CCC3(CCN(Cc4cc(F)cc(F)c4)CC3)CC2)sc2c([N+](=O)[O-])cc(C(F)(F)F)cc12: 5.8

====

# Assay Protocol: Cmax in ICR mouse at 50 mg/kg, po by HPLC analysis
# Assay type: ADME, organism-based
# Set-up: dose 50 mg/kg, route oral
# Condition Set: in vivo
Parameter Measured: Cmax (ng/mL)

* O=c1nc(N2CCN(CC3CCCCC3)CC2)sc2c([N+](=O)[O-])cc(C(F)(F)F)cc12 | 1300
* O=c1nc(N2CCC3(CCN(Cc4ccc(C(F)(F)F)cc4)CC3)CC2)sc2c([N+](=O)[O-])cc(C(F)(F)F)cc12 | 2700
* O=c1nc(N2CCC3(CCN(Cc4cccc(F)c4)CC3)CC2)sc2c([N+](=O)[O-])cc(C(F)(F)F)cc12 | 901
* O=c1nc(N2CCC3(CCN(Cc4ccc(F)cc4)C3)CC2)sc2c([N+](=O)[O-])cc(C(F)(F)F)cc12 | 1230
* O=c1nc(N2CCC3(CCN(Cc4cc(F)cc(F)c4)CC3)CC2)sc2c([N+](=O)[O-])cc(C(F)(F)F)cc12 | 426
* CCOC(=O)CN1CCC2(CCN(c3nc(=O)c4cc(C(F)(F)F)cc([N+](=O)[O-])c4s3)CC2)C1 | 17.6
* O=c1nc(N2CCC3(CCN(Cc4ccc(Br)cc4)CC3)CC2)sc2c([N+](=O)[O-])cc(C(F)(F)F)cc12 | 1680

====

# Assay Protocol: AUC (0 to infinity) in ICR mouse at 50 mg/kg, po by HPLC analysis
# Format: ADME, organism-based
# Design: dose 50 mg/kg, time infinity, route oral
# Condition Set: in vivo
Parameter Measured: log10(AUC(0-inf)) (log10 of the value in ng·h/mL)

- O=c1nc(N2CCC3(CCN(Cc4cccc(F)c4)CC3)CC2)sc2c([N+](=O)[O-])cc(C(F)(F)F)cc12: 3.69
- O=c1nc(N2CCC3(CCN(Cc4ccc(F)cc4)C3)CC2)sc2c([N+](=O)[O-])cc(C(F)(F)F)cc12: 3.78
- CCOC(=O)CN1CCC2(CCN(c3nc(=O)c4cc(C(F)(F)F)cc([N+](=O)[O-])c4s3)CC2)C1: 1.62
- O=c1nc(N2CCC3(CCN(Cc4cc(F)cc(F)c4)CC3)CC2)sc2c([N+](=O)[O-])cc(C(F)(F)F)cc12: 3.41
- O=c1nc(N2CCN(CC3CCCCC3)CC2)sc2c([N+](=O)[O-])cc(C(F)(F)F)cc12: 3.74
- O=c1nc(N2CCC3(CCN(Cc4ccc(Br)cc4)CC3)CC2)sc2c([N+](=O)[O-])cc(C(F)(F)F)cc12: 4.39
- O=c1nc(N2CCC3(CCN(Cc4ccc(C(F)(F)F)cc4)CC3)CC2)sc2c([N+](=O)[O-])cc(C(F)(F)F)cc12: 4.46
